From: ChEMBL document CHEMBL1134648

pKi: −log10 of the molar value.
RESULT_TYPE: pKi

Query: Enter reported pKi observed with UniProt:P00747 for `CS(=O)(=O)c1ccccc1-c1ccc(NC(=O)c2cc(C(F)(F)F)nn2-c2cccc(CN)c2)c(F)c1.Cl`
Sequence (P00747 97-580 limits assumed): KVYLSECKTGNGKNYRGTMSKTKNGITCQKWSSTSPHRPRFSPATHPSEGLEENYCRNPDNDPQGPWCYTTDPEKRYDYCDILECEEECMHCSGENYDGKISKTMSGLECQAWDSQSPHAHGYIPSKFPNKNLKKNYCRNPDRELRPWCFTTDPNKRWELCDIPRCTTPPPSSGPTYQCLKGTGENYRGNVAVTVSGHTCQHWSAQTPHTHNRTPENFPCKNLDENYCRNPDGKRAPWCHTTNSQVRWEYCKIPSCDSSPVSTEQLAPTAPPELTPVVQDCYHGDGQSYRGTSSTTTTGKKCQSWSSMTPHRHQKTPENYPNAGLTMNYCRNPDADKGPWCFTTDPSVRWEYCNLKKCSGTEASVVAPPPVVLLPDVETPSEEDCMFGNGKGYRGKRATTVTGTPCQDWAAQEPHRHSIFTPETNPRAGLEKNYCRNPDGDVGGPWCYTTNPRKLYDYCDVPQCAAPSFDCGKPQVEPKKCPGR
Sequence (P00747 581-810 limits assumed): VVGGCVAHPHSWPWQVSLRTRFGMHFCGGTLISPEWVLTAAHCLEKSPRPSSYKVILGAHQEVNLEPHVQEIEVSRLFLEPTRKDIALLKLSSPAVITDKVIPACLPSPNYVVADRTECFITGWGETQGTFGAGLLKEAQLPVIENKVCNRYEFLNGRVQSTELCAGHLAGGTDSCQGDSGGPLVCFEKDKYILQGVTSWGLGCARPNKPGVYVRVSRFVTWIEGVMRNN
Result: < 4.46

---

target: Plasma kallikrein (Homo sapiens); assay: In vitro activity against human Plasma kallikrein.
Sequence (P03952 20-390 limits assumed): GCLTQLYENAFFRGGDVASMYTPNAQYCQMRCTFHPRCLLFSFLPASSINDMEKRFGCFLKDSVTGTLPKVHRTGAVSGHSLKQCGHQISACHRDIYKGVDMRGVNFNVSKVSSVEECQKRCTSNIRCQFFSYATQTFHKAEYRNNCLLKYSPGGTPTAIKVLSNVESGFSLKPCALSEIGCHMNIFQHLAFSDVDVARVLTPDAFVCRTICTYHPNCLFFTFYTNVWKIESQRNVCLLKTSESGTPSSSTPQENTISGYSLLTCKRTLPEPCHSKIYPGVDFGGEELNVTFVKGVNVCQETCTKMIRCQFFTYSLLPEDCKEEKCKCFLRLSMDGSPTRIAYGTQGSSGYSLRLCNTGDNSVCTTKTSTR
Sequence (P03952 391-638 limits assumed): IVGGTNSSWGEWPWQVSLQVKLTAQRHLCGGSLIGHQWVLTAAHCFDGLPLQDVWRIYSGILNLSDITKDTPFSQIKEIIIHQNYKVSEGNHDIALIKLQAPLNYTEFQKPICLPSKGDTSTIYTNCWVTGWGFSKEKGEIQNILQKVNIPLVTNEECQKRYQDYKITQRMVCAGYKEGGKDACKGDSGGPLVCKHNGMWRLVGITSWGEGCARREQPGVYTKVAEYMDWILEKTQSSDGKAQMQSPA
RESULT_TYPE: pKi
By convention, pKi is the negative base-10 log of a molar concentration.

Query: Enter reported pKi observed with Plasma kallikrein (Homo sapiens) for `CS(=O)(=O)c1ccccc1-c1ccc(NC(=O)c2cc(C(F)(F)F)nn2-c2cccc(CN)c2)c(F)c1.Cl`
Result: 7.21
